# PROCEDURE DETAILS: Effect of volatile aldehydes on sulfur-based malodor (headspace GC/MS)
# PARTICULARS: 30 minutes at room temperature, 1 μL aldehyde in 10 mL headspace vial
PROPERTY: At least 20% butanethiol reduction at 30 minutes?

compound=Cc1ccc(C=O)o1 result=Yes
compound=CCCCCCCCCCC=O result=No
compound="CC(C=O)Cc1ccc(C(C)(C)C)cc1 (stereo not shown)" result=No
compound="CC(C)=CCCC(C)CCCC(C)C=O (stereo not shown)" result=No
compound=Cc1ccc(C=O)s1 result=Yes
compound="CC1(C)C2CC=C(CCC=O)C1C2 (stereo not shown)" result=Yes
compound=CCCCCCCCCCCC=O result=No
compound=CCCCCC(C=O)=Cc1ccccc1 result=No
compound=CC(C=O)=Cc1ccco1 result=No
compound="CC(C)=CCCC(C)CCOCC=O (stereo not shown)" result=No

###

# PROCEDURE DETAILS: Vapor pressure at 25° C.
# Format: physicochemical
# PARTICULARS: Table 1, materials of Accord A
For each record, check the reported VP (torr) @25° C.: if it is below 0.03 torr write class 1, else write class 0.

compound="CC(C=O)Cc1ccc(C(C)C)cc1 (stereo not drawn)" group="class 1"
compound="COC1CC2CC1C1CC(C=O)CC21 (stereo not drawn)" group="class 1"
compound=C=CCCCCCCCCC=O group="class 0"
compound=COc1ccccc1C=O group="class 0"
compound="CC(C)c1cccc(C(C)CC=O)c1 (stereo not drawn) [Florhydral, 3-(3-Isopropyl-phenyl)-butyraldehyde]" group="class 1"

###

# PROCEDURE DETAILS: Vapor pressure at 25° C.
# Assay type: physicochemical
# PARTICULARS: Table 2, materials of Accord B
Classify: Y when VP (torr) @25° C. is strictly less than 0.03 torr; N when VP (torr) @25° C. is not.

molecule="COc1ccccc1C=O [o-anisaldehyde]" group=N
molecule="COC1CC2CC1C1CC(C=O)CC21 (centres unmarked) [Scentenal]" group=Y
molecule="CC(C)=CCCC(C)C=O (centres unmarked) [Melonal, 2,6-Dimethyl-5-Heptenal]" group=N
molecule="C=CCCCCCCCCC=O [Intreleven Aldehyde, undec-10-en-1-al]" group=N

###

Quick reference for VP (torr) @25° C. among some compounds
# PROCEDURE DETAILS: Vapor pressure at 25° C.
# Format: physicochemical
# PARTICULARS: Table 3, materials of Accord C
PROPERTY: VP (torr) @25° C.

compound="CCC(=O)OC1CC2CC1C1CC=CC21 (stereo not drawn)" property="VP (torr) @25° C." units=torr numeric_value=0.020
compound="C=CC(C)CCC=C(C)CCC=O (stereo not drawn)" property="VP (torr) @25° C." units=torr numeric_value=0.030
compound="C=CC(C)(O)CCC=C(C)C (stereo not drawn)" property="VP (torr) @25° C." units=torr numeric_value=0.050
compound="CC(=O)OC1CC2CC1C1CC=CC21 (stereo not drawn) [Flor Acetate]" property="VP (torr) @25° C." units=torr numeric_value=0.060
compound="CC(C)=CCCC(C)CCCC(C)C=O (stereo not drawn)" property="VP (torr) @25° C." units=torr numeric_value=0.007
compound=CC(C)(C)c1ccc(CCC=O)cc1 property="VP (torr) @25° C." units=torr numeric_value=0.004
